Target: SIRT1 (Homo sapiens, UniProt Q96EB6)
Assay: Mass spectrometry based assay to identify modulators of SIRT1 activity (deacetylation of p53-based acetylated peptide)
Format: biochemical
Conditions: SIRT1 activation; 10 nM SIRT1, 0.5 μM peptide substrate, 120 μM βNAD+, 25 minutes at 25° C.
reported_metric: EC1.5 μM

structure_string=Cn1c(-c2cccc(C(F)(F)F)c2)nc2c(C(=O)Nc3ccnc(CN4CCCC4)n3)cccc2c1=O reported_metric="EC1.5 μM" readout_value="B (EC1.5 1-25 μM)"
structure_string=Cn1c(-c2cccc(C(F)(F)F)c2)nc2c(C(=O)Nc3nc(CN4CCOCC4)cs3)cccc2c1=O reported_metric="EC1.5 μM" readout_value="A (EC1.5<1.0 μM)"
structure_string=Cc1cc(NC(=O)c2cccc3c(=O)cc(-c4cccc(C(F)(F)F)c4)[nH]c23)n(C)n1 reported_metric="EC1.5 μM" readout_value="A (EC1.5<1.0 μM)"
structure_string=Cn1c(-c2ccccc2S(C)(=O)=O)nc2c(C(=O)Nc3ccccn3)cccc2c1=O reported_metric="EC1.5 μM" readout_value="B (EC1.5 1-25 μM)"
structure_string=Cn1c(-c2ccc(CN3CCCC3)cc2)nc2c(C(=O)Nc3ccccn3)cccc2c1=O reported_metric="EC1.5 μM" readout_value="C (EC1.5>25 μM)"

// lookup EC1.5 μM for O=C(Nc1cccc2c(=O)n(CCN3CCCC3)c(-c3cccc(C(F)(F)F)c3)nc12)c1cnccn1
B (EC1.5 1-25 μM)

What does the data say about its EC1.5 μM? Entry: CCc1nnc(NC(=O)c2cccc3c(=O)cc(-c4cccc(C(F)(F)F)c4)[nH]c23)s1
A (EC1.5<1.0 μM)

Look up EC1.5 μM: Cn1c(-c2cccc(C(F)(F)F)c2)nc2c(NS(=O)(=O)c3cccnc3)cccc2c1=O
C (EC1.5>25 μM)

---

Molecular target: SIRT1 (Homo sapiens, UniProt Q96EB6)
Sequence (Q96EB6 1-747): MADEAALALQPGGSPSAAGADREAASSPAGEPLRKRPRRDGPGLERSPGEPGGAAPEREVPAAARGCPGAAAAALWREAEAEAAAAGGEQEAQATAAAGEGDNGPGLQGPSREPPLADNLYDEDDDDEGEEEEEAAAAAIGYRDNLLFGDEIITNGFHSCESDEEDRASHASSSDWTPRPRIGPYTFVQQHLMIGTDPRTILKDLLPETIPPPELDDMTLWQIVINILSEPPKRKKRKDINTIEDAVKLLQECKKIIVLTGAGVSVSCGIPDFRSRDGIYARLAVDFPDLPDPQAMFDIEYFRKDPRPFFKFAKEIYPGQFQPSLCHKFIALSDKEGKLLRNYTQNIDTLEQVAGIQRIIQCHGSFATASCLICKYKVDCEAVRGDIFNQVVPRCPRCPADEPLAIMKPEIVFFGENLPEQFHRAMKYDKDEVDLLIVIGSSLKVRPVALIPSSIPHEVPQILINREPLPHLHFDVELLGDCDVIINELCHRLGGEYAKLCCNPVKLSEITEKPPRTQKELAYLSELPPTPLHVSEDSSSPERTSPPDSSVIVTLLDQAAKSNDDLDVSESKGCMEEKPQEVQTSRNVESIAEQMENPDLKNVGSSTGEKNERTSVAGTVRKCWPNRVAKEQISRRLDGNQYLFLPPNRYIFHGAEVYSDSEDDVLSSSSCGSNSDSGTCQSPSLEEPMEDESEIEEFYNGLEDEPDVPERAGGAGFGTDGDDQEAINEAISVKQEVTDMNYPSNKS
Assay: Mass spectrometry based assay to identify modulators of SIRT1 activity (deacetylation of p53-based acetylated peptide)
Format: biochemical
Conditions: SIRT1 activation; 10 nM SIRT1, 0.5 μM peptide substrate, 120 μM βNAD+, 25 minutes at 25° C.
reported_metric: EC1.5 μM

compound=Cn1c(-c2ccccc2OC(F)F)nc2c(NC(=O)c3cnccn3)cccc2c1=O reported_metric="EC1.5 μM" readout_value="A (EC1.5<1.0 μM)"
compound=Cn1c(-c2cccc(C(F)(F)F)c2)nc2c(C(=O)Nc3cccc(OC[C@H](O)CO)n3)cccc2c1=O reported_metric="EC1.5 μM" readout_value="A (EC1.5<1.0 μM)"
compound=O=C(Nc1nccs1)c1cccc2c(=O)cc(-c3ccccc3OC(F)F)[nH]c12 reported_metric="EC1.5 μM" readout_value="A (EC1.5<1.0 μM)"
compound=O=C(Nc1ccccn1)c1cccc2c(=O)[nH]c(-c3cccc(C(F)F)c3)nc12 reported_metric="EC1.5 μM" readout_value="C (EC1.5>25 μM)"
compound=Cn1c(-c2cccc(C(F)(F)F)c2)nc2c(C(=O)Nc3nc(CN4CCCC4)cs3)cccc2c1=O reported_metric="EC1.5 μM" readout_value="A (EC1.5<1.0 μM)"

I would be grateful if you could share the reported EC1.5 μM for Cc1nc(C)c(-c2nc3c(NC(=O)c4cnccn4)cccc3c(=O)n2C)s1 .
B (EC1.5 1-25 μM)

Any idea what its EC1.5 μM is? The compound is Cn1c(-c2cccc(C(F)(F)F)c2)nc2c(C(=O)Nc3cccc(CN4CCOCC4)n3)cccc2c1=O
A (EC1.5<1.0 μM)

Quick check: EC1.5 μM of Cn1c(-c2cncnc2)nc2c(C(=O)Nc3ccccn3)cccc2c1=O ?
C (EC1.5>25 μM)

Entry Cn1c(-c2cccc(C(F)(F)F)c2)nc2c(NC(=O)c3cccc(N4CCCC4)c3)cccc2c1=O has what EC1.5 μM?
C (EC1.5>25 μM)

Can you look up the measured EC1.5 μM of Cn1c(-c2cccc(C(F)(F)F)c2)nc2c(C(=O)Nc3cccc(OCC(O)CO)c3)cccc2c1=O (centres unmarked) [Compound 286] for me?
A (EC1.5<1.0 μM)

---

Target: SIRT1 (Homo sapiens)
Sequence (Q96EB6 1-747): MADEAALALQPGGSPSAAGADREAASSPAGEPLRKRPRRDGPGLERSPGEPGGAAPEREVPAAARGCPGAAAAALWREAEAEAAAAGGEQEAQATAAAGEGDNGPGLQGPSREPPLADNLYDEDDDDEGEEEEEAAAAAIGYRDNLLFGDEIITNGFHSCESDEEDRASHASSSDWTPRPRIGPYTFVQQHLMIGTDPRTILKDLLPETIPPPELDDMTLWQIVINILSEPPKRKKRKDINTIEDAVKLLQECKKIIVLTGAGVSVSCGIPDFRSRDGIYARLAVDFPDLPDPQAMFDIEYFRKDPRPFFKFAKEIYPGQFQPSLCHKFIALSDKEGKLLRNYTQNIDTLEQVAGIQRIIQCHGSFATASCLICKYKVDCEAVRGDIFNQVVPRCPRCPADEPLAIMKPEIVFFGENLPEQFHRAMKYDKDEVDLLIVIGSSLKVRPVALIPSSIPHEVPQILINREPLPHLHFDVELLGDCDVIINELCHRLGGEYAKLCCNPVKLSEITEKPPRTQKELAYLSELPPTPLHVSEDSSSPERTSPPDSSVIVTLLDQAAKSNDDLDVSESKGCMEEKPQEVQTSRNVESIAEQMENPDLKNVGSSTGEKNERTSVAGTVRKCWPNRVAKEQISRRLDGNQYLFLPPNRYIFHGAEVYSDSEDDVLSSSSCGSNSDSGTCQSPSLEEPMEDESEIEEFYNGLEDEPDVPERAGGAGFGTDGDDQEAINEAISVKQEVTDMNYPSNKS
Experiment: Mass spectrometry based assay to identify modulators of SIRT1 activity (deacetylation of p53-based acetylated peptide)
Type: biochemical
Conditions: 10 nM SIRT1, 0.5 μM peptide substrate, 120 μM βNAD+, 25 minutes at 25° C.
reported_metric: % Fold Act. (percent maximum fold activation)

compound="Cn1cnc(NC(=O)c2cccc3c(=O)n(C)c(-c4cccc(C(F)(F)F)c4)nc23)n1 [Compound 305]" assayed_system="SIRT1 (Homo sapiens)" readout_value="A (Fold activation>200%)"
compound="Cn1cc(-c2nc3c(NC(=O)c4cnccn4)cccc3c(=O)n2C)cn1 [Compound 291]" assayed_system="SIRT1 (Homo sapiens)" readout_value="B (Fold Activation<200%)"
compound="Cn1c(-c2ccccc2OC(F)F)nc2c(C(=O)Nc3ccccn3)cccc2c1=O [Compound 327]" assayed_system="SIRT1 (Homo sapiens)" readout_value="A (Fold activation>200%)"
compound="Cn1c(-c2cccc(C(F)(F)F)c2)nc2c(NC(=O)c3cccc(N4CCCC4)n3)cccc2c1=O [Compound 342]" assayed_system="SIRT1 (Homo sapiens)" readout_value="A (Fold activation>200%)"
compound="O=C(Nc1ccccn1)c1cccc2c(=O)[nH]c(-c3cccc(C(F)F)c3)nc12 [Compound 319]" assayed_system="SIRT1 (Homo sapiens)" readout_value="B (Fold Activation<200%)"
compound="Cn1c(-c2ccc(OC(F)(F)F)cc2)nc2c(C(=O)Nc3ccccn3)cccc2c1=O [Compound 211]" assayed_system="SIRT1 (Homo sapiens)" readout_value="B (Fold Activation<200%)"
compound="Cn1ccnc1C(=O)Nc1cccc2c(=O)cc(-c3cccc(C(F)(F)F)c3)[nH]c12 [Compound 420]" assayed_system="SIRT1 (Homo sapiens)" readout_value="A (Fold activation>200%)"

Field: next compound
Any idea what its % Fold Act. (percent maximum fold activation) is? The compound is Cn1c(-c2cccc(C(F)(F)F)c2)nc2c(C(=O)Nc3nc(CN4CCCC4)cs3)cccc2c1=O [Compound 357]
A (Fold activation>200%)
